Catalogue of pIC50 readings, one per entry.
- systemTested: 6×HIS-tankyrase1 (1091-1325) (Homo sapiens (Human), UniProt O95271)
- Sequence (O95271 1091-1325): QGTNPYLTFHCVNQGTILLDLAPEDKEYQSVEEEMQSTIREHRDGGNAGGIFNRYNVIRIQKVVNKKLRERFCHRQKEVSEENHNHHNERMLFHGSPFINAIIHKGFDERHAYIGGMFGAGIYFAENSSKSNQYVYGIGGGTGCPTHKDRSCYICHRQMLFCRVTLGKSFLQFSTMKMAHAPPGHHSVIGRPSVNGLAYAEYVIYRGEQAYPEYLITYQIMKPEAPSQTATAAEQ
- assayProtocol: Tankyrase 1 biochemical assay (AlphaLisa, PARsylation)
- reportedConditions: 400 nM NAD, 60 minutes at RT; read-out: TNKS1 IC50
pIC50 (log units): -log10 of the concentration in mol/L.

Guide cases for pIC50, answers given:
compound	pIC50
O=C(CCSc1nc2ccccc2c(=O)[nH]1)N1CCC(n2c(=O)[nH]c3cc(Cl)ccc32)CC1 [Example 82]	6.89
O=C(CCCc1nc2ccccc2c(=O)[nH]1)N1CCC(n2c(=O)[nH]c3c(F)cccc32)CC1 [Example 67]	8.41
O=C(CCCc1nc2ccccc2c(=O)[nH]1)N1CCC(c2nnc(-c3cccc(F)c3)o2)CC1 [Example 5]	7.50
N#Cc1ccc2c(c1)[nH]c(=O)n2[C@H]1CC[C@H](NC(=O)CSc2nc3ccccc3c(=O)[nH]2)CC1 [Example 103]	9.89
O=C(CCCc1nc2ccccc2c(=O)[nH]1)N1CCC(c2nnc(COc3ccc(Cl)cc3)o2)CC1 [Example 17]	6.19
O=C(CCCc1nc2ccccc2c(=O)[nH]1)N1CCC(n2c(=O)oc3cc(F)ccc32)CC1 [Example 53, trifluoroacetic acid]	8.50
O=C(CCCc1nc2ccccc2c(=O)[nH]1)N1CCC(c2nnc(-c3cccc(Cl)c3)o2)CC1 [Example 3]	7.96
N#Cc1ccc(O[C@H]2CC[C@H](NC(=O)CCCc3nc4ccccc4c(=O)[nH]3)CC2)cc1 [Example 78]	8.65
O=C(CCSc1nc2ccccc2c(=O)[nH]1)N1CCN(c2n[nH]c3ccccc23)CC1 [Example 94]	7.92
O=C(CCCc1nc2ccccc2c(=O)[nH]1)N1CCC(c2nnc(-c3ccccc3F)o2)CC1 [Example 18]	7.26

Entry O=C(CCCc1nc2ccccc2c(=O)[nH]1)N1CCC(n2c(=O)[nH]c3cc(Cl)ccc32)CC1 [Example 27] , pIC50 reported as 8.87

pIC50 reported for this compound Nc1cc(=O)[nH]c(SCCC(=O)N[C@H]2CC[C@H](c3nnc(-c4ccccc4)o3)CC2)n1 [Example 91] : 8.40

* * *

- systemTested: PARP2 (Homo sapiens (Human), UniProt Q9UGN5)
- Sequence (Q9UGN5 whole entry): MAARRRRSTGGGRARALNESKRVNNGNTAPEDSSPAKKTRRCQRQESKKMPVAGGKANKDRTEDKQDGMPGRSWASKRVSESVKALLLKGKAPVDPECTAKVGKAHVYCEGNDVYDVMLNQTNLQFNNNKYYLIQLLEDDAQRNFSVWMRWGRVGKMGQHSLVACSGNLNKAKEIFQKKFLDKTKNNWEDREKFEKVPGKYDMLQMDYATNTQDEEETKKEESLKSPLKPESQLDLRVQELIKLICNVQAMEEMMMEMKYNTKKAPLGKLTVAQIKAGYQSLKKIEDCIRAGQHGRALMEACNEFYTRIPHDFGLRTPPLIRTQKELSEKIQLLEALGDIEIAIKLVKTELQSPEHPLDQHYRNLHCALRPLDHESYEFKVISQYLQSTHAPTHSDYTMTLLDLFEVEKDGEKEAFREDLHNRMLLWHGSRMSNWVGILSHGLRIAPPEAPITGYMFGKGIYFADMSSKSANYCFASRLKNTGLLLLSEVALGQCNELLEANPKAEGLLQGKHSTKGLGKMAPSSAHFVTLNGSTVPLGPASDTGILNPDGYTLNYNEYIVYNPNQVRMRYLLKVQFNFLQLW
Here the recorded pIC50 is given for each entry.
pIC50 is defined as minus the log10 of a concentration measured in mol/L.

The following molecules have reported results that may help.
molecule	observedProperty	quantitativeResult
N#Cc1cccc(O[C@H]2CC[C@H](NC(=O)CCCc3nc4ccccc4c(=O)[nH]3)CC2)c1 [Example 58]	pIC50	6.01
COc1cccc(-c2nnc([C@H]3CC[C@H](NC(=O)CCSc4nc5ccccc5c(=O)[nH]4)CC3)o2)c1 [Example 120]	pIC50	5.43
COc1ccc(-c2nnc(C3CCN(C(=O)CCCc4nc5ccccc5c(=O)[nH]4)CC3)o2)cc1 [Example 15]	pIC50	5.92
O=C(CCc1nc2ccccc2c(=O)[nH]1)N[C@H]1CC[C@H](c2nnc(-c3ccccc3)o2)CC1 [Example 2]	pIC50	6.01
O=C(CCCc1nc2ccccc2c(=O)[nH]1)N1CCC(n2c(=O)sc3ccccc32)CC1 [Example 50, trifluoroacetic acid]	pIC50	6.13

Reported pIC50 for O=C(CCCc1nc2ccccc2c(=O)[nH]1)N1CCC(n2c(=O)[nH]c3ccccc32)CC1 [Example 41, trifluoroacetic acid] was 6.30

What the record says about O=C(CCSc1nc2ccc(F)cc2c(=O)[nH]1)N[C@H]1CC[C@H](c2nnc(-c3ccccc3)o2)CC1 [Example 145] : pIC50 is 5.95

Recorded result, N#Cc1cccc(-c2nnc(C3CCN(C(=O)CCCc4nc5ccccc5c(=O)[nH]4)CC3)o2)c1 [Example 20] , pIC50: 6.43

Entry O=C(CCCc1nc2ccccc2c(=O)[nH]1)N1CCC(c2nnc(-c3cccnc3)o2)CC1 [Example 13] , pIC50 reported as 5.91

* * *

- System: Axin2 accumulation in SW480 cells
- assayProtocol: Axin2 384 immunofluorescence assay
- Assay type: cell-based
- reportedConditions: Homo sapiens; SW480 cells, 24 hours; read-out: Axin2 384 IF EC50
Measured pEC50 of individual entries
Note on pEC50: it is the negative log10 of concentration, concentration in mol/L.

In the examples that follow, each entry is paired with its recorded pEC50.
structureSmilesString	pEC50
O=C(CCCc1nc2ccccc2c(=O)[nH]1)N1CCN(c2nsc3ccccc23)CC1	6.16
N#Cc1ccc(O[C@H]2CC[C@H](NC(=O)CCCc3nc4ccccc4c(=O)[nH]3)CC2)cc1Cl	7.22
O=C(CCCc1nc2ccccc2c(=O)[nH]1)N[C@H]1CC[C@H](c2nnc(-c3ccccc3)o2)CC1	7.13
N#Cc1cccc(-c2nnc(C3CCN(C(=O)CCCc4nc5ccccc5c(=O)[nH]4)CC3)o2)c1	6.78

Consider now this further molecule.
The reported value for COc1cccc(-c2nnc([C@H]3CC[C@H](NC(=O)CCCc4nc5ccccc5c(=O)[nH]4)CC3)o2)c1 in terms of pEC50 is 7.49

* * *

- systemTested: PARP2 (Homo sapiens (Human), UniProt Q9UGN5)
Threshold 1000 nM: IC50 strictly smaller gives 1 (yes), otherwise 0 (no).

Consider the worked cases shown below.
molecule	systemTested	qualitativeLabel
N#Cc1cccc2c1[nH]c(=O)n2C1CCN(C(=O)CCCc2nc3ccccc3c(=O)[nH]2)CC1 [Example 61]	PARP2 (Homo sapiens (Human), UniProt Q9UGN5)	1 (yes)
O=C(CCCc1nc2ccccc2c(=O)[nH]1)N1CCC(c2nnc(-c3ccccn3)o2)CC1 [Example 12]	PARP2 (Homo sapiens (Human), UniProt Q9UGN5)	0 (no)
N#Cc1cccc(-c2nnc([C@H]3CC[C@H](NC(=O)CCc4nc5ccccc5c(=O)[nH]4)CC3)o2)c1 [Example 137]	PARP2 (Homo sapiens (Human), UniProt Q9UGN5)	0 (no)
Cn1c(=O)n(C2CCN(C(=O)CCCc3nc4ccccc4c(=O)[nH]3)CC2)c2ccccc21 [Example 54]	PARP2 (Homo sapiens (Human), UniProt Q9UGN5)	1 (yes)
O=C(CCCc1nc2ccccc2c(=O)[nH]1)N[C@H]1CC[C@H](OCc2ccccc2)C1 (stereo in doubt) [Example 62]	PARP2 (Homo sapiens (Human), UniProt Q9UGN5)	0 (no)

Now take the following molecule into account.
**Q:** Does CC(C)(c1ccccc1)c1nnc([C@H]2CC[C@H](NC(=O)CCc3nc4ccccc4c(=O)[nH]3)CC2)o1 [Example 140] have IC50 strictly under 1000 nM?
**A:** 0 (no)

* * *

- System: Axin2 accumulation in SW480 cells
- assayProtocol: Axin2 384 immunofluorescence assay
- Type: cell-based
- reportedConditions: Homo sapiens; SW480 cells, 24 hours; read-out: Axin2 384 IF EC50
observedProperty: pEC50
Remember the convention: pEC50 equals -log10 of concentration in molar.

structureSmilesString	pEC50
O=C(CCCc1nc2ccccc2c(=O)[nH]1)N1CCC(n2c(=O)[nH]c3cc(Cl)ccc32)CC1	6.94
O=C(CCCc1nc2ccccc2c(=O)[nH]1)N[C@H]1CC[C@H](Oc2cccnc2)CC1	6.02
N#Cc1cc(O[C@H]2CC[C@H](NC(=O)CCSc3nc4ccccc4c(=O)[nH]3)CC2)ccc1Cl	7.25

Form field pEC50, entry O=C(CSc1nc2ccccc2c(=O)[nH]1)N[C@H]1CC[C@H](n2c(=O)[nH]c3cc(Cl)ccc32)CC1 : 7.59

* * *

- Tested on: 8×TCF promoter-driven Firefly luciferase (Wnt reporter) in DLD-1 colorectal cells
- assayProtocol: DLD-1-STF assay, constitutively activated Wnt pathway reporter
- Type: cell-based
- reportedConditions: Homo sapiens, DLD-1, read-out: DLD1-STF-FF/RL*100 IC50
observedProperty: IC50 (nM)
Please respond with the number in nM and leave the unit unwritten.

Sample records with IC50:
structureSmilesString	IC50 (nM)
O=C(CCSc1nc2c(c(=O)[nH]1)CCCC2)N[C@H]1CC[C@H](c2nnc(-c3ccccc3)o2)CC1	1.3
N#Cc1ccc(O[C@H]2CC[C@H](NC(=O)CCSc3nc4ccccc4c(=O)[nH]3)CC2)cc1Cl	1.08
O=C(CCSc1nc2ccccc2c(=O)[nH]1)N[C@H]1CC[C@H](Oc2ccccn2)CC1	1.33

In plain terms, O=C(CCSc1nc2ccccc2c(=O)[nH]1)N[C@H]1CC[C@H](c2nnc(-c3ccccc3)o2)CC1 has a documented IC50 of 0.608

What the record says about O=C(CCSc1nc2ccccc2c(=O)[nH]1)N[C@H]1CC[C@H](Oc2ccncc2)CC1 : IC50 is 0.682

For record N#Cc1ccc(O[C@H]2CC[C@H](NC(=O)CCSc3nc4ccccc4c(=O)[nH]3)CC2)cc1 the listed IC50 is 0.275

IC50 recorded for this compound, O=C(CCCSc1nc2ccccc2c(=O)[nH]1)N[C@H]1CC[C@H](c2nnc(-c3ccccc3)o2)CC1 , is 1.78
